B1: WDFY2 (parent)
chain: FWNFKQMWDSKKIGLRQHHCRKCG

variants of: B1; test: protein stability index of a GFP-peptide fusion (GPS, HEK-293T) (PSI 1-6); higher = more stable; conditions: c terminus: a fixed tail appended;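 further: lentivirally expressed fusions sorted by FACS into six bins by GFP to DsRed ratio, PSI derived from sequencing read proportions per bin multiplied by bin number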
ASSAY_METRIC: protein stability index
In your answer, state the number alone without any accompanying words.

q: Please indicate protein stability index recorded for K5W
a: 1.38

q: Output protein stability index of S10A
a: 1.32

q: Output protein stability index of W2D
a: 2.78

q: Identify protein stability index associated with the variant I13K
a: 1.99

q: Quote protein stability index reported for W2E please.
a: 3.29

q: Item Q6E : provide protein stability index
a: 1.89

More entries:
q: Specify protein stability index for L15G and stop.
a: 2.14

q: Write down protein stability index measured for item C20Q
a: 2.15

q: Please look at this variant and report its protein stability index: D9I
a: 2.56

q: Tell me protein stability index reported for R16F
a: 3.39

q: Answer with the recorded protein stability index for the variant listed here: M7S
a: 2.57

q: Name the recorded protein stability index of the item F4L in your answer.
a: 1.94

q: Item H19W : provide protein stability index
a: 1.69

q: Tell us which protein stability index value is on record for N3Q
a: 2.1

q: Give protein stability index for W8C
a: 2.34

Source: the supplement of paper PMC10567573
